experimental-target: human V1a receptor (Homo sapiens)
Construct: expressed in transfected cells; host or cells: CHO K1 (ATCC), also stably transfected with a modified aequorin
assay-name: Cellular in vitro assay for determining vasopressin receptor activity, V1a receptor cell line (CHO, aequorin luminescence)
Assay type: cell-based
experimental-context: selectivity ratio IC50 hV2 / IC50 hV1a
reported-endpoint: ratio IC50 hV2/hV1a

[1] NC(=O)C1CCCN1C(=O)c1cccc(Cl)c1-n1cnc(Cn2nc(-c3ccc(Cl)cc3)n(C[C@H](O)C(F)(F)F)c2=O)n1 (mixture of isomers)
[2] O=C(c1ccccc1-n1cnc(Cn2nc(-c3ccc(Cl)cc3)n(C[C@H](O)C(F)(F)F)c2=O)n1)N1CCCCCCC1
Identify the entry with the smaller ratio IC50 hV2/hV1a: 1 or 2 . Identify your selection by its label.
1
(1: 17.1, 2: 138.5)

* * *

experimental-target: UniProt P37288
assay-name: Cellular in vitro assay for determining vasopressin receptor activity, V1a receptor cell line (CHO, aequorin luminescence)
experimental-context: CHO cell line transfected with human V1a receptor; [Arg]-vasopressin at EC50 concentration; read-out: IC50 hV1a
reported-endpoint: IC50 (nM)

Known IC50 results, listed for orientation:
| compound | IC50 (nM) |
| --- | --- |
| O=C1CCC(CNc2ncccc2-n2cnc(Cn3nc(-c4ccc(Cl)cc4)n(C[C@H](O)C(F)(F)F)c3=O)n2)N1 (stereo partly drawn) [Example 70] | 150 |
| O=CN1CCN(C(=O)c2ccccc2-n2cnc(Cn3nc(-c4ccc(Cl)cc4)n(C[C@H](O)C(F)(F)F)c3=O)n2)CC1 [Example 263] | 32.5 |
| CN(C)C1CN(C(=O)c2ccccc2-n2cnc(Cn3nc(-c4ccc(Cl)cc4)n(C[C@H](O)C(F)(F)F)c3=O)n2)C1 [Example 286] | 14.5 |

[I] CC1(NC(=O)c2ccncc2-n2cnc(Cn3nc(-c4ccc(Cl)cc4)n(C[C@H](O)C(F)(F)F)c3=O)n2)CC1 [Example 492]
[II] O=c1n(Cc2ncn(-c3cccnc3NCC(F)(F)F)n2)nc(-c2ccc(Cl)cc2)n1C[C@H](O)C(F)(F)F [Example 71]
Pick one, I or II : lowest reported IC50. Pick one; state its label.
I

* * *

experimental-target: human V1a receptor (Homo sapiens, UniProt P37288)
Construct: expressed in transfected cells; host or cells: CHO K1 (ATCC), also stably transfected with a modified aequorin
Sequence (P37288 whole entry): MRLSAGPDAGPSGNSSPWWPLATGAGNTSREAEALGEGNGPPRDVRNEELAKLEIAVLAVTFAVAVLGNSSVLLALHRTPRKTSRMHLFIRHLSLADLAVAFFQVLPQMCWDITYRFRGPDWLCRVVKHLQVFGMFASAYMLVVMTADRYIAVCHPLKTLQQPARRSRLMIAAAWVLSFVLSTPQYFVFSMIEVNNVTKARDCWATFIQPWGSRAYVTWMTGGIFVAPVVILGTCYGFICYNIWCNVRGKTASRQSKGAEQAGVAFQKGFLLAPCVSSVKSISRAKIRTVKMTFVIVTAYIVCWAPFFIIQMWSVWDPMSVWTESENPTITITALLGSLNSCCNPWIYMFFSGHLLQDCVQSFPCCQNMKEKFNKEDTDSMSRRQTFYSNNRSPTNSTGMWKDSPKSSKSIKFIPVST
assay-name: Cellular in vitro assay for determining vasopressin receptor activity, V1a receptor cell line (CHO, aequorin luminescence)
Type: cell-based
experimental-context: selectivity ratio IC50 hV2 / IC50 hV1a
reported-endpoint: ratio IC50 hV2/hV1a

| compound | ratio IC50 hV2/hV1a |
| --- | --- |
| CC1CCCN(C(=O)c2ccccc2-n2cnc(Cn3nc(-c4ccc(Cl)cc4)n(C[C@H](O)C(F)(F)F)c3=O)n2)C1C (mixture of isomers) | 484.3 |
| CC1(CNC(=O)c2ccccc2-n2cnc(Cn3nc(-c4ccc(Cl)cc4)n(C[C@H](O)C(F)(F)F)c3=O)n2)COC1 | 83.2 |
| CCC(C)NC(=O)c1ccccc1-n1cnc(Cn2nc(-c3ccc(Cl)cc3)n(C[C@H](O)C(F)(F)F)c2=O)n1 (mixture of isomers) | 92.0 |

[1] O=C1CCC(NC(=O)c2ccccc2-n2cnc(Cn3nc(-c4ccc(Cl)cc4)n(C[C@H](O)C(F)(F)F)c3=O)n2)CN1 (mixture of isomers)
[2] Cc1nnsc1C(=O)Nc1ncccc1-n1cnc(Cn2nc(-c3ccc(Cl)cc3)n(C[C@H](O)C(F)(F)F)c2=O)n1
Given 1 and 2 , report the one with the higher recorded ratio IC50 hV2/hV1a. Lab log: write the label of the selected item as the result.
1
(1: 192.3, 2: 111.1)
